Molecular target: Carbonic anhydrase 1 (Homo sapiens, UniProt P00915)
Sequence (P00915 whole entry): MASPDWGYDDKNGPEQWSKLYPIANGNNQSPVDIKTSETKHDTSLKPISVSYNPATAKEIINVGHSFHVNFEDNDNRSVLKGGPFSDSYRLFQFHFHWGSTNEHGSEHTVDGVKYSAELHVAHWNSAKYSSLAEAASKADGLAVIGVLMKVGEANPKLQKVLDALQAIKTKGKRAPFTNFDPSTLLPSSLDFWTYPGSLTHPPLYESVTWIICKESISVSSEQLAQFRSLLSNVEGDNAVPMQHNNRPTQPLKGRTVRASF
pKi: −log10 of the molar value.
# reported pKi; entries follow

INSERT INTO measurements (structure, endpoint_value) VALUES
  ('C/C(=N\NC(N)=S)c1nnn(-c2ccc(S(=O)(=O)Nc3nccs3)cc2)c1C', '< 4.00'),
  ('C/C(=N\Nc1nc(-c2ccc(Cl)cc2)cs1)c1nnn(-c2ccc(Cl)cc2)c1C', '< 4.00');

Incoming: pKi for C/C(=N\Nc1nc(-c2ccc(Cl)cc2)cs1)c1nnn(-c2ccc(S(=O)(=O)Nc3nccs3)cc2)c1C ?
Outgoing: < 4.00
